# IC50 annotations
tested.on: Human thrombin (Homo sapiens)

Reference set (8 entries):
>  <molecule>
C=CCOC(=O)N1CCC(c2nn(C(=O)C(C)(C)C)c(NCc3ccc(Cl)s3)c2C#N)CC1

>  <IC50>
< 100 nM

$$$$
>  <molecule>
O=C(N1CCC(c2n[nH]c(NCc3ccc(Cl)s3)c2F)CC1)C1(O)CC1

>  <IC50>
10000 to 100000 nM

$$$$
>  <molecule>
CC(C)(C)C(=O)n1nc(C2CC3CCC(C2)N3S(C)(=O)=O)cc1NCc1ccc(Cl)s1 (centres unmarked)

>  <IC50>
< 100 nM

$$$$
>  <molecule>
Cc1c(C2CCN(C(=O)OC(C)(C)C)CC2)nn(C(=O)C(C)(C)C)c1NCc1ccc(Cl)s1

>  <IC50>
100 to 1000 nM

$$$$
>  <molecule>
CC(C)(C)OC(=O)N1CCC(c2cc(NCc3ccc(Cl)s3)n(C(=O)C(C)(C)C)n2)CC1

>  <IC50>
< 100 nM

$$$$
>  <molecule>
CN(C)C(=O)N1CCC(c2cc(NCc3ccc(Cl)s3)n(C(=O)C(C)(C)CO)n2)CC1

>  <IC50>
< 100 nM

$$$$
>  <molecule>
CC(C)(C)OC(=O)N1CCCC(c2cc(NCc3ccc(Cl)s3)n(C(=O)C3(C)CCOCC3)n2)C1 (centres unmarked)

>  <IC50>
< 100 nM

$$$$
>  <molecule>
CS(=O)(=O)N1CCCC1c1cc(NCc2ccc(Cl)s2)[nH]n1 (centres unmarked)

>  <IC50>
> 100000 nM

$$$$

Under Human thrombin (Homo sapiens): IC50 value of `O=C(O)CN1CCC(c2cc(NCc3ccc(Cl)s3)[nH]n2)CC1` ?
> 100000 nM

Under Human thrombin (Homo sapiens): IC50 value of `FC(F)(CN1CCC(c2cc(NCc3ccc(Cl)s3)[nH]n2)CC1)c1ccccn1` ?
> 100000 nM

Under Human thrombin (Homo sapiens): IC50 value of COc1ccccc1C(=O)n1nc(C2(C)CCCN(C(=O)OC(C)(C)C)C2)cc1NCc1ccc(Cl)s1 (centres unmarked) ?
< 100 nM

Under Human thrombin (Homo sapiens): IC50 value of `Cc1c(C2CCN(C(=O)c3cscn3)CC2)n[nH]c1NCc1ccc(Cl)s1` ?
> 100000 nM

====

tested.on: UniProtKB P00734
endpoint: IC50

Reference set (3 entries):
>  <compound>
Clc1ccc(CNc2cc(C3CCCO3)n[nH]2)s1 (stereo not drawn)

>  <IC50>
> 100000 nM

$$$$
>  <compound>
CC(C)(C)C(=O)N1CCC(c2cc(NCc3ccc(Cl)s3)n(C(=O)c3ccsc3)n2)CC1

>  <IC50>
< 100 nM

$$$$
>  <compound>
CN(C)S(=O)(=O)N1CCC(c2cc(NCc3ccc(Cl)s3)n(C(=O)C(C)(C)CO)n2)CC1

>  <IC50>
< 100 nM

$$$$

Note: attention shifts to another entry.
Under UniProtKB P00734: IC50 value of C=CCOC(=O)N1CCCC1c1cc(NCc2ccc(Cl)s2)n(C(=O)C(C)(C)C)n1 (stereo not drawn) ?
< 100 nM

====

Please consider the recorded IC50 for Human thrombin (Homo sapiens, UniProt P00734) in what follows.
Counter-ions that a name gives are not always drawn.

>  <compound>
C=CCOC(=O)N1CCC(c2n[nH]c(NCc3ccc(Cl)s3)c2F)CC1 [Entry 269]

>  <IC50>
> 100 µM

$$$$

Under Human thrombin (Homo sapiens, UniProt P00734): IC50 value of O=C(C1CCCCC1)n1nc(C2CCNCC2)cc1NCc1ccc(Cl)s1 [Entry 169, hydrochloride] ?
> 100 µM

Under Human thrombin (Homo sapiens, UniProt P00734): IC50 value of C=CCOC(=O)N1CCC(c2cc(NCc3ccc(Cl)s3)n(C(=O)C(C)(C)C)n2)CC1 [Entry 262] ?
< 0.1 µM

Under Human thrombin (Homo sapiens, UniProt P00734): IC50 value of CC(C)(C)C(=O)N1CC(c2cc(NCc3ccc(Cl)s3)[nH]n2)C1 [Entry 97] ?
> 100 µM

====

tested.on: UniProt P00734
# IC50 annotations

Reference set (8 entries):
>  <molecule>
C=CCOC(=O)N1CCC(c2nn(C(=O)C(C)(C)C)c(NCc3ccc(Cl)s3)c2F)CC1

>  <IC50>
< 0.1 µM

$$$$
>  <molecule>
Clc1ccc(CNc2cc(C3CCOCC3)n[nH]2)s1

>  <IC50>
> 100 µM

$$$$
>  <molecule>
CC(C)(C)OC(=O)N1CCCC(C)(c2cc(NCc3ccc(Cl)s3)n(C(=O)C3(C)CCOCC3)n2)C1 (stereo not shown)

>  <IC50>
0.1 to 1 µM

$$$$
>  <molecule>
COc1ccccc1C(=O)n1nc(C2CCCO2)cc1NCc1ccc(Cl)s1 (stereo not shown)

>  <IC50>
< 0.1 µM

$$$$
>  <molecule>
COc1ccccc1C(=O)n1nc(C2(C)CCNCC2)cc1NCc1ccc(Cl)s1

>  <IC50>
1 to 10 µM

$$$$
>  <molecule>
CC(C)(C)OC(=O)N1CCC(C)(c2cc(NCc3ccc(Cl)s3)n(C(=O)c3ccsc3)n2)CC1

>  <IC50>
< 0.1 µM

$$$$
>  <molecule>
COc1ccccc1C(=O)n1nc(C2(C)CCCNC2)cc1NCc1ccc(Cl)s1 (stereo not shown)

>  <IC50>
1 to 10 µM

$$$$
>  <molecule>
COCCN1CCC(c2cc(NCc3ccc(Cl)s3)[nH]n2)CC1

>  <IC50>
> 100 µM

$$$$

What value of IC50 has been recorded for this entry: `Clc1ccc(CNc2cc(C3CCN(Cc4c[nH]cn4)CC3)n[nH]2)s1`
1 to 10 µM

What value of IC50 has been recorded for this entry: CC(C)(C)OC(=O)N1CCCC(c2cc(NCc3ccc(Cl)s3)n(C(=O)C(C)(C)C)n2)C1 (stereo not shown)
< 0.1 µM

What value of IC50 has been recorded for this entry: `O=C(CN1CCOCC1)N1CCC(c2cc(NCc3ccc(Cl)s3)[nH]n2)CC1`
> 100 µM

====

Please consider the recorded pIC50 for Human thrombin (Homo sapiens, UniProt P00734) in what follows.
pIC50: −log10 of the molar value. Where a name gives a salt, the structure may show the parent alone.

>  <compound>
C=CCOC(=O)N1CCN(C(=O)N2CCOCC2)CC1c1cc(NCc2ccc(Cl)s2)n(C(=O)c2cscn2)n1 (centres unmarked)

>  <tested.on>
Human thrombin (Homo sapiens, UniProt P00734)

>  <pIC50>
6.00 to 7.00

$$$$
>  <compound>
CC(C)(C)OC(=O)N1CCC(c2cc(NCc3ccc(Cl)s3)n(C(=O)c3ccsc3)n2)CC1

>  <tested.on>
Human thrombin (Homo sapiens, UniProt P00734)

>  <pIC50>
> 7.00

$$$$
>  <compound>
O=C(c1cccc2c1OCCO2)n1nc(C2CCNCC2)cc1NCc1ccc(Cl)s1 [Entry 143, hydrochloride]

>  <tested.on>
Human thrombin (Homo sapiens, UniProt P00734)

>  <pIC50>
5.00 to 6.00

$$$$

Under Human thrombin (Homo sapiens, UniProt P00734): pIC50 value of `Clc1ccc(CNc2cc(C3CCN(Cc4ncco4)CC3)n[nH]2)s1` ?
< 4.00

Under Human thrombin (Homo sapiens, UniProt P00734): pIC50 value of CC1CCCC(C)C1C(=O)n1nc(C2CCNCC2)cc1NCc1ccc(Cl)s1 (centres unmarked) [Entry 151, hydrochloride] ?
5.00 to 6.00

====

tested.on: Human thrombin (Homo sapiens)
pIC50: −log10 of the molar value.
# pIC50 annotations

Reference set (3 entries):
>  <compound>
CC1(c2cc(NCc3ccc(Cl)s3)n(C(=O)c3ccsc3)n2)CCNCC1

>  <endpoint>
pIC50

>  <recorded.value>
5.00 to 6.00

$$$$
>  <compound>
C=CCOC(=O)N1CCN(C(=O)CN2CCOCC2)CC1c1cc(NCc2ccc(Cl)s2)n(C(=O)C(C)(C)C)n1 (centres unmarked)

>  <endpoint>
pIC50

>  <recorded.value>
5.00 to 6.00

$$$$
>  <compound>
O=C(c1ccsc1)n1nc(C2CCCO2)cc1NCc1ccc(Cl)s1 (centres unmarked)

>  <endpoint>
pIC50

>  <recorded.value>
> 7.00

$$$$

What value of pIC50 has been recorded for this entry: `Clc1ccc(CNc2cc(C3CCN(CCN4CCOCC4)CC3)n[nH]2)s1`
5.00 to 6.00

What value of pIC50 has been recorded for this entry: `CC(C)(C)C(=O)n1nc(C2CCN(CC(=O)O)CC2)cc1NCc1ccc(Cl)s1`
6.00 to 7.00

====

tested.on: Human thrombin (Homo sapiens, UniProt P00734)
pIC50: −log10 of the molar value.
endpoint: pIC50

Under Human thrombin (Homo sapiens, UniProt P00734): pIC50 value of CN(C)C(=O)N1CCC(c2cc(NCc3ccc(Cl)s3)n(C(=O)N(C)C)n2)CC1 [Entry 136] ?
< 4.00

Under Human thrombin (Homo sapiens, UniProt P00734): pIC50 value of CC(C)(C)OC(=O)N1CCCC(C)(c2cc(NCc3ccc(Cl)s3)n(C(=O)c3ccsc3)n2)C1 (stereo not shown) [Entry 288] ?
> 7.00

Under Human thrombin (Homo sapiens, UniProt P00734): pIC50 value of Clc1ccc(CNc2cc(C3CCN(Cc4ccccn4)CC3)n[nH]2)s1 [Entry 210] ?
5.00 to 6.00

Under Human thrombin (Homo sapiens, UniProt P00734): pIC50 value of C=CCOC(=O)N1CCCC1c1cc(NCc2ccc(Cl)s2)n(C(=O)c2cscn2)n1 (stereo not shown) [Entry 243] ?
> 7.00
